Tested On: TLR7 (Homo sapiens, UniProt Q9NYK1)
Construct: Human peripheral blood mononuclear cells (PBMCs) consist of lymphocytes, monocytes and dendritic cells that express TLR7, TLR8 and TLR9; endogenous in cells
Sequence (Q9NYK1 27-1049): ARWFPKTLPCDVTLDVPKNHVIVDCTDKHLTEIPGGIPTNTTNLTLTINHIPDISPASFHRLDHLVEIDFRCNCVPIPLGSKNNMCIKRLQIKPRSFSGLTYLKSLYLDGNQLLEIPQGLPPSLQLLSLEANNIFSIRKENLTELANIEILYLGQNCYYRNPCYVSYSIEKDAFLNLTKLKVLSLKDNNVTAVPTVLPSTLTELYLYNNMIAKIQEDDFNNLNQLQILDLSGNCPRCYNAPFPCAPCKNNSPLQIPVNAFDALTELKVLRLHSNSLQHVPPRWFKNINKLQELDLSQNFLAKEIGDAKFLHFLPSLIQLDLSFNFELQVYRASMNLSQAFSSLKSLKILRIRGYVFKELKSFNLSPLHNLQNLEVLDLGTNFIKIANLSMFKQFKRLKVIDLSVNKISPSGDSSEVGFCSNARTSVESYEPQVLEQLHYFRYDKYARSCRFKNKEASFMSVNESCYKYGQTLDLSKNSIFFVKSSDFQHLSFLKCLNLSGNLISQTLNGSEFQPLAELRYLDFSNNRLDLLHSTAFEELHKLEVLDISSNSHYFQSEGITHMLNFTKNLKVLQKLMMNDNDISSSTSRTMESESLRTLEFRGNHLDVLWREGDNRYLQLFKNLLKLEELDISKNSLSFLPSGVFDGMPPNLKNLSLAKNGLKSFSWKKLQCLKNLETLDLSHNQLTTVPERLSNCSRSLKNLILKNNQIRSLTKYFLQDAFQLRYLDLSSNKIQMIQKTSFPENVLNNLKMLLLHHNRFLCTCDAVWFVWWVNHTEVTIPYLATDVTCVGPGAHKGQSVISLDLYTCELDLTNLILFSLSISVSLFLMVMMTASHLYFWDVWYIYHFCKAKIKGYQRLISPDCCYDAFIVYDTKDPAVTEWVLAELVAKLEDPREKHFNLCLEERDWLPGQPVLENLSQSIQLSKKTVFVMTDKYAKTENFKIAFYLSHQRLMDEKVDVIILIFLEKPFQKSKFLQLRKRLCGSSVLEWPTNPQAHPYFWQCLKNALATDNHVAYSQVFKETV
Procedure Summary: TLR7 human PBMC cell-based assay (antagonist, GS-986 stimulated cytokine release)
Condition Set: human PBMCs; TLR7 agonist GS-986 400 nM, 6 hours; cytokines (IL-6 and IFNα) in supernatant; read-out: TLR-7 EC50
Entries and their EC50

{"columns": ["Compound", "EC50 (nM)"],
 "data": [
  ["COc1cc(-c2[nH]c3cc(-c4cn(C5CCNCC5)nn4)sc3c2C(C)C)cn2ncnc12 [Example 232]", 0.7],
  ["Cc1cc(-c2[nH]c3cc(C(=O)N4CCC5CCNCC54)sc3c2C(C)C)cn2ncnc12 (centres unmarked) [Example 89]", 2.5],
  ["Cc1cc(-c2[nH]c3cc(C(=O)N4C[C@@H]5[C@@H](N)[C@@H]5C4)sc3c2C(C)C)cn2ncnc12 [Example 74]", 10.5],
  ["Cc1cc(-c2[nH]c3cc(C(=O)N4CCN5CCOC[C@@H]5C4)sc3c2C(C)C)cc(C)n1 [Example 42]", 489],
  ["Cc1cc(-c2[nH]c3cc(C4CCC5(CC4)CN(CCO)C5)sc3c2C(C)C)cn2ncnc12 [Example 191]", 0.2],
  ["Cc1cc(-c2[nH]c3cc(C(=O)N(C)[C@H]4CCNC4)sc3c2C(C)C)cn(C)c1=O [Example 36]", 29.8],
  ["Cc1cc(-c2[nH]c3cc(C(=O)N(C)[C@H]4CCCNC4)sc3c2C(C)C)cc(C)n1 [Example 29]", 60],
  ["Cc1cc(-c2[nH]c3cc(C4CCC5(CC4)CN(CC(N)=O)C5)sc3c2C(C)C)cn2ncnc12 [Example 177]", 0.2]
]}
